target: FAAH in rat brain membranes (Rattus norvegicus, UniProt P97612); assay: FAAH assay, [14C]-AEA hydrolysis in rat brain membranes; conditions: IC50 FAAH (m ± sd), rat brain membranes, AEA hydrolysis, without pre-incubation
Sequence (P97612 whole entry): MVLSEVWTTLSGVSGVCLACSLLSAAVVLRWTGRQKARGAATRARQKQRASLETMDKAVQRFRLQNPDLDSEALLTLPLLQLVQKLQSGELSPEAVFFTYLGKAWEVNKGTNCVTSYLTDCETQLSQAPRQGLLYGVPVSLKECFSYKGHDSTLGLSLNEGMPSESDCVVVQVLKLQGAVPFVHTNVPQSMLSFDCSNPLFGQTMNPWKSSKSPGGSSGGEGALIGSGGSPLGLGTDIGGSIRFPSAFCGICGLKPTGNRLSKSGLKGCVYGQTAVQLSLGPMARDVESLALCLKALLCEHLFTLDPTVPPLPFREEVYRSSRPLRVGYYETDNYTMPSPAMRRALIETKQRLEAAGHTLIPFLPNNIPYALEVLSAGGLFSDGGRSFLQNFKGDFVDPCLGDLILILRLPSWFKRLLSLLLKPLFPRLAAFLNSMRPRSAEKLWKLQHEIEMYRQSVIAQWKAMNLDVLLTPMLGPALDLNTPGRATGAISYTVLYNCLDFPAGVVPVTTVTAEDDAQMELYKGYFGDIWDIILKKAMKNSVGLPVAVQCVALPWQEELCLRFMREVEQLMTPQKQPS
pIC50: −log10 of the molar value.
Measured pIC50 accompanies every entry in the list below.
REPORTED PROPERTY: pIC50

> print(dat)
                                   molecule  value.observed
1  CN(CCCOc1ccc2ccc(=O)oc2c1)Cc1cccc(OC(=O)NC2CCCCC2)c1 [Compound 3]            5.59
2  CN(CCCOc1ccc2ccc(=O)oc2c1)Cc1cccc(OC(=O)Nc2ccc3ccccc3c2)c1 [Compound 4]            5.80
3  CN(CCCOc1ccc2ccc(=O)oc2c1)Cc1cccc(OC(=O)NC2CCCC2)c1 [Compound 2]            5.22
